Cited source: patent US4681879A

# Tested on: apomorphine climbing
# assay.explanation: Antipsychotic activity, climbing mice assay (apomorphine)
# Format: in vivo, mice (CK-1 male)
# condition.summary: Mus musculus; ip, 30 minutes prior to apomorphine 1.5 mg/kg sc
property.measured: log10 ED50 (log10 of the value in mg/kg)
// stored as log10 of ED50 expressed in mg/kg

Some compounds with recorded log10 ED50:
compound: Oc1ccc(CCN2CCC(C3Oc4ccccc4Cn4cccc43)CC2)cc1 (stereo not shown)
log10 ED50: -0.52
//
compound: Clc1ccc(CCN2CCC(C3Oc4ccccc4Cn4cccc43)CC2)cc1 (stereo not shown)
log10 ED50: 0.32
//
compound: Cc1ccc(CCN2CCC(C3Oc4ccccc4Cn4cccc43)CC2)cc1 (stereo not shown)
log10 ED50: 0.08
//
compound: CN(C)c1ccc(CCN2CCC(C3Oc4ccccc4Cn4cccc43)CC2)cc1 (stereo not shown)
log10 ED50: 0.08
//
compound: O=C(CCN1CCC(C2Oc3ccccc3Cn3cccc32)CC1)c1ccccc1.O=C(O)C(=O)O (stereo not shown)
log10 ED50: 0.20
//
compound: c1ccc(OCCCN2CCC(C3Oc4ccccc4Cn4cccc43)CC2)cc1 (stereo not shown)
log10 ED50: 0.08
//
compound: CCOc1ccc(CCN2CCC(C3Oc4ccccc4Cn4cccc43)CC2)cc1 (stereo not shown)
log10 ED50: 0.11
//
compound: COc1cccc(CCN2CCC(C3Oc4ccccc4Cn4cccc43)CC2)c1 (stereo not shown)
log10 ED50: -0.05
//
compound: Fc1ccc2c(CCCN3CCC(C4Oc5ccccc5Cn5cccc54)CC3)noc2c1.O=C(O)C(=O)O (stereo not shown)
log10 ED50: 0.32

Please examine the following record next.
Problem: What does the record list as log10 ED50 for Fc1ccc(CCN2CCC(C3Oc4ccccc4Cn4cccc43)CC2)cc1.O=C(O)C(=O)O (stereo not shown) ?
Solution: 0.49

----------
# System: apomorphine climbing
# assay.explanation: Antipsychotic activity, climbing mice assay (apomorphine)
# Type: in vivo, mice (CK-1 male)
# condition.summary: Mus musculus; ip, 30 minutes prior to apomorphine 1.5 mg/kg sc
# note: exactly 2 mg/kg is not below, so it is N; use Y for ED50 strictly under it

Answered examples (10):
molecule: COc1ccc(CCN2CCC(C3Oc4ccccc4Cn4cccc43)CC2)cc1.O=C(O)C(=O)O (stereo not drawn)
cat: Y
--
molecule: Cc1[nH]c2ccccc2c1CCCN1CCC(C2Oc3ccccc3Cn3cccc32)CC1.O=C(O)C(=O)O (stereo not drawn)
cat: N
--
molecule: COc1ccc(CCN2CCC(C3Oc4ccccc4Cn4cccc43)CC2)cc1OC (stereo not drawn)
cat: Y
--
molecule: O=C(O)C(=O)O.O=c1[nH]c2ccccc2n1CCN1CCC(C2Oc3ccccc3Cn3cccc32)CC1 (stereo not drawn)
cat: N
--
molecule: O=C(O)C(=O)O.c1ccc(CCN2CCC(C3Oc4ccccc4Cn4cccc43)CC2)cc1 (stereo not drawn)
cat: N
--
molecule: O=C(CCN1CCC(C2Oc3ccccc3Cn3cccc32)CC1)c1ccc(Cl)cc1 (stereo not drawn)
cat: N
--
molecule: COc1cccc(CCN2CCC(C3Oc4ccccc4Cn4cccc43)CC2)c1OC.O=C(O)/C=C/C(=O)O (stereo not drawn)
cat: N
--
molecule: CCCCN1CCC(C2Oc3ccccc3Cn3cccc32)CC1 (stereo not drawn)
cat: N
--
molecule: c1csc(CCN2CCC(C3Oc4ccccc4Cn4cccc43)CC2)c1 (stereo not drawn)
cat: Y
--
molecule: O=[N+]([O-])c1ccc(CCN2CCC(C3Oc4ccccc4Cn4cccc43)CC2)cc1 (stereo not drawn)
cat: N

Now let's try a different one.
Problem: Does O=C(O)C(=O)O.O=c1[nH]c2ccccc2n1CCCN1CCC(C2Oc3ccccc3Cn3cccc32)CC1 (stereo not drawn) have ED50 strictly under 2 mg/kg?
Solution: Y
